Here the recorded k2 is given for each entry.
Target: T1, Caspase-3 (UniProt P42574)
T1 sequence (looked up): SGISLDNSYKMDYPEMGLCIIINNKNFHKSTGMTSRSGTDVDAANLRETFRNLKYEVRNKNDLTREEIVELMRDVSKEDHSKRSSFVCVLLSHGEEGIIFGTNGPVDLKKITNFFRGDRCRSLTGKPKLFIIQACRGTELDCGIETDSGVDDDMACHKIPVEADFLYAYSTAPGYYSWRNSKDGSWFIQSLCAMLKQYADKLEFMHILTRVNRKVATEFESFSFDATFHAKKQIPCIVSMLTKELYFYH
Experiment: cell-based or functional assay
Numbered stars: 1 amine (or outer) side, 2 acyl side, 3 side chain; on linkers, the order of the positions; unused ones are H or OH. Square brackets hold non-standard residues; d marks the D form. * marks the point of attachment. AAsp = aza-Asp, O=C(N(CC(=O)[*:3])N[*:1])[*:2]; CH:CH‑COOEt = CCOC(=O)/C=C/*; CH═CH‑COOEt = CCOC(=O)/C=C/*; Cbz = O=C(OCc1ccccc1)*
outcome measure: k2 (M⁻¹ s⁻¹)

1) Cbz-IET[AAsp]-{CH═CH‑COOEt} (SMILES CCOC(=O)/C=C/C(=O)N(CC(=O)O)NC(=O)[C@@H](NC(=O)[C@H](CCC(=O)O)NC(=O)[C@@H](NC(=O)OCc1ccccc1)[C@@H](C)CC)[C@@H](C)O) [Cbz-Ile-Glu-Thr-AAsp-CH═CH-COOEt] ... 6740
2) Cbz-VEV[AAsp]-{CH:CH‑COOEt} (SMILES CCOC(=O)/C=C/C(=O)N(CC(=O)O)NC(=O)[C@@H](NC(=O)[C@H](CCC(=O)O)NC(=O)[C@@H](NC(=O)OCc1ccccc1)C(C)C)C(C)C) [Cbz-Val-Glu-Val-AAsp-CH═CH-COOEt] ... 41200
3) Cbz-IET[AAsp]-{CH═CH‑CONHCH2CH2Ph} [Cbz-Ile-Glu-Thr-AAsp-CH═CH-CONHCH2CH2Ph] ... 4750
